# target.of.assay: Nuclear receptor subfamily 1 group I member 2 (Homo sapiens)
# experiment.notes: NVS_NR_hPXR: NovaScreen (NVS) Nuclear Receptor Binding Assay for human Pregnane X Receptor (PXR) (AID 2283365);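 note: a drop in FRET signal versus DMSO baseline means the compound binds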
Records with an inconclusive call do not appear. Calls of active or inactive are those of the source. Rule for the calls: active = hit-call score of the fitted dose curve at least 0.9, where 1 is the maximum; inconclusive = response in the unintended direction; inactive = score below 0.9.
Write down one outcome, taken from active, inactive

compound: CC(C)(C)NC(=O)[C@H]1CC[C@H]2[C@@H]3CC[C@H]4NC(=O)C=C[C@]4(C)[C@H]3CC[C@]12C
class.label: inactive
--
compound: C/C=C/C=C/CCCCCCCO
class.label: active
--
compound: O=C(O)CC(C(=O)O)S(=O)(=O)O (stereo unspecified)
class.label: inactive

Recorded call for CC1=CC=C(C(C)C)CC1 ?
inactive

Hi, do you know how CCCCNS(=O)(=O)c1ccc(C)cc1 came out in this test?
inactive

Status in this test for CC(C)c1cc(C(C)C)cc(C(C)C)c1 ?
inactive
